# Species: Rattus norvegicus
# assaySummary: Evaluated for Ca++ independent phosphodiesterase activity.
# Format: functional

>  <compound>
CC(C)Nc1nc2cc(F)ccc2n2cnnc12

>  <sign>
=

>  <IC50 (µM)>
6

$$$$
>  <compound>
CC(C)Nc1nc2ccc(F)cc2n2cnnc12

>  <sign>
=

>  <IC50 (µM)>
4.5

$$$$
>  <compound>
CCc1nnc2c(NC(C)C)nc3ccccc3n12

>  <sign>
=

>  <IC50 (µM)>
0.3

$$$$
>  <compound>
CC(C)Nc1nc2ccc(F)cc2n2c(C(F)(F)F)nnc12

>  <sign>
=

>  <IC50 (µM)>
0.37

$$$$
>  <compound>
CCNc1nc2ccccc2n2c(CC)nnc12

>  <sign>
=

>  <IC50 (µM)>
2.5

$$$$
>  <compound>
FC(F)(F)c1nnc2c(NC3CCCCC3)nc3ccc(Cl)cc3n12

>  <sign>
>

>  <IC50 (µM)>
10

$$$$
>  <compound>
CCN(CC)c1nc2ccccc2n2cnnc12

>  <sign>
=

>  <IC50 (µM)>
3

$$$$
>  <compound>
Cn1c(=O)c2c(ncn2C)n(C)c1=O

>  <sign>
=

>  <IC50 (µM)>
170

$$$$
>  <compound>
Clc1ccc2nc(N3CCNCC3)c3nnc(-c4ccccc4)n3c2c1

>  <sign>
=

>  <IC50 (µM)>
10

$$$$
>  <compound>
Nc1nc2ccc(F)cc2n2cnnc12

>  <sign>
=

>  <IC50 (µM)>
4

$$$$
>  <compound>
CCc1nnc2c(N)nc3ccccc3n12

>  <sign>
=

>  <IC50 (µM)>
12

$$$$
>  <compound>
Fc1ccc2nc(NC3CCCCC3)c3nnc(C(F)(F)F)n3c2c1

>  <sign>
=

>  <IC50 (µM)>
6

$$$$
>  <compound>
CCc1nnc2c(NC(C)C)nc3c(Cl)cccc3n12

>  <sign>
>

>  <IC50 (µM)>
10

$$$$

====

Collected IC50 values appear next to each entry.
# systemName: Phosphodiesterase 1 (Rattus norvegicus, UniProt Q63421+Q9EPR9+Q01066)
# assaySummary: Evaluated for Ca++ dependent phosphodiesterase activity.
# Assay type: functional

>  <compound>
Fc1ccc2nc(NC3CCCCC3)c3nnc(C(F)(F)F)n3c2c1

>  <IC50>
> 10 µM

$$$$
>  <compound>
CCc1nnc2c(NC(C)C)nc3c(Cl)cccc3n12

>  <IC50>
>> 10 uM

$$$$
>  <compound>
Cn1c(=O)c2c(ncn2C)n(C)c1=O

>  <IC50>
70 µM

$$$$
>  <compound>
CCc1nnc2c(NC(C)C)nc3ccc(Cl)cc3n12

>  <IC50>
2 µM

$$$$
>  <compound>
CCN(CC)c1nc2ccccc2n2cnnc12

>  <IC50>
1.2 µM

$$$$
>  <compound>
CC(C)Nc1nc2ccc(Cl)cc2n2c(-c3ccccc3)nnc12

>  <IC50>
> 10 µM

$$$$
>  <compound>
CCc1nnc2c(N)nc3cc(F)ccc3n12

>  <IC50>
>> 10 uM

$$$$
>  <compound>
CC(C)Nc1nc2cc(F)ccc2n2cnnc12

>  <IC50>
> 100 µM

$$$$
>  <compound>
Clc1ccc2nc(N3CCNCC3)c3nnc(-c4ccccc4)n3c2c1

>  <IC50>
>> 10 uM

$$$$
>  <compound>
CC(C)Nc1nc2ccc(F)cc2n2c(C(F)(F)F)nnc12

>  <IC50>
24 µM

$$$$
>  <compound>
CCCN(CCC)c1nc2ccc(F)cc2n2c(C(F)(F)F)nnc12

>  <IC50>
>> 10 uM

$$$$
>  <compound>
c1ccc2c(c1)nc(N1CCNCC1)c1nncn12

>  <IC50>
3 µM

$$$$
>  <compound>
COc1ccc(C2CNC(=O)C2)cc1OC1CCCC1 (stereo not drawn)

>  <IC50>
> 100 µM

$$$$
>  <compound>
COc1ccc2c(c1)nc(N)c1nncn12

>  <IC50>
>> 10 uM

$$$$
>  <compound>
CCc1nnc2c(N(CC)CC)nc3ccccc3n12

>  <IC50>
0.1 µM

$$$$
>  <compound>
Nc1nc2ccc(F)cc2n2cnnc12

>  <IC50>
> 10 µM

$$$$
>  <compound>
CCNc1nc2cc(Cl)ccc2n2c(CC)nnc12

>  <IC50>
> 10 µM

$$$$
>  <compound>
CC(C)Cn1c(=O)n(C)c(=O)c2nc[nH]c21

>  <IC50>
0.1 µM

$$$$

====

# systemName: Adenosine receptor A1 (Rattus norvegicus, UniProt P25099)
# assaySummary: Binding affinity towards the adenosine A1 receptor in cerebral cortices of Sprague-Dawley male rats using [3H]CHA as radioligand.
pIC50: −log10 of the molar value.
Collected pIC50 values appear next to each entry.

>  <compound>
Nc1nc2ccc(F)cc2n2cnnc12

>  <sign>
=

>  <pIC50>
5.54

$$$$
>  <compound>
CCc1nnc2c(NC(C)C)nc3ccc(F)cc3n12

>  <sign>
=

>  <pIC50>
6.74

$$$$
>  <compound>
CCc1nnc2c(NC(C)C)nc3c(Cl)cccc3n12

>  <sign>
=

>  <pIC50>
5.17

$$$$
>  <compound>
CN1CCN(c2nc3ccccc3n3cnnc23)CC1

>  <sign>
<

>  <pIC50>
4.00

$$$$
>  <compound>
CCc1nnc2c(NC(C)C)nc3ccccc3n12

>  <sign>
=

>  <pIC50>
6.18

$$$$
>  <compound>
CCc1nnc2c(NC(C)C)nc3cc(Cl)c(Cl)cc3n12

>  <sign>
=

>  <pIC50>
6.96

$$$$
>  <compound>
CCc1nnc2c(NC(C)=O)nc3ccc(Cl)cc3n12

>  <sign>
=

>  <pIC50>
5.74

$$$$
>  <compound>
O=C1CCCN1c1nc2ccccc2n2cnnc12

>  <sign>
<

>  <pIC50>
4.00

$$$$
>  <compound>
CCc1nnc2c(N)nc3cc(Cl)c(Cl)cc3n12

>  <sign>
=

>  <pIC50>
6.96

$$$$
>  <compound>
CCc1nnc2c(NC3CCCC3)nc3ccc(Cl)cc3n12

>  <sign>
=

>  <pIC50>
7.70

$$$$
>  <compound>
CCCN(CCC)c1nc2ccccc2n2cnnc12

>  <sign>
≤

>  <pIC50>
4.00

$$$$
>  <compound>
CCN(CC)c1nc2ccccc2n2c(C)nnc12

>  <sign>
<

>  <pIC50>
5.00

$$$$
>  <compound>
CCNc1nc2ccc(OC)cc2n2c(CC)nnc12

>  <sign>
=

>  <pIC50>
6.15

$$$$

====

# systemName: Adenosine receptor A1 (Rattus norvegicus)
# Sequence (P25099 whole entry): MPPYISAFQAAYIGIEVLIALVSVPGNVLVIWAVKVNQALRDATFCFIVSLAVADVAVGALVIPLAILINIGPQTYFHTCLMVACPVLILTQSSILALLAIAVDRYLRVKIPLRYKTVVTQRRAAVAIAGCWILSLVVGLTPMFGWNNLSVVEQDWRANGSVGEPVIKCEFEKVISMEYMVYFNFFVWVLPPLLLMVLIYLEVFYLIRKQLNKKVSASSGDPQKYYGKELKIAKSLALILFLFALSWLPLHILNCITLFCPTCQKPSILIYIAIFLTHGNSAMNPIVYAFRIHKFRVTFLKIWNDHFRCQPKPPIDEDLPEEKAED
# assaySummary: Binding affinity towards the adenosine A1 receptor in cerebral cortices of Sprague-Dawley male rats using [3H]CHA as radioligand.
Grouping rule (IC50): 0 = under 800 nM, 1 = from 800 nM up to 3000 nM, 2 = 3000 nM and over

>  <compound>
CCN(CC)c1nc2ccc(Cl)cc2n2c(C)nnc12

>  <cat>
2

$$$$
>  <compound>
Cc1nnc2c(NC(C)C)nc3ccccc3n12

>  <cat>
1

$$$$
>  <compound>
CCc1nnc2c(NC(C)C)nc3ccc(Cl)cc3n12

>  <cat>
0

$$$$
>  <compound>
CCc1nnc2c(NCCO)nc3ccccc3n12

>  <cat>
1

$$$$
>  <compound>
CCNc1nc2ccccc2n2c(C(C)C)nnc12

>  <cat>
1

$$$$
>  <compound>
CCNc1nc2ccc(F)cc2n2cnnc12

>  <cat>
2

$$$$
>  <compound>
c1ccc2c(c1)nc(N1CCNCC1)c1nncn12

>  <cat>
2

$$$$
>  <compound>
CCNc1nc2ccc(F)cc2n2c(CC)nnc12

>  <cat>
0

$$$$
>  <compound>
CCc1nnc2c(N(CC)CC)nc3cc(Cl)c(Cl)cc3n12

>  <cat>
2

$$$$
>  <compound>
CC(C)Nc1nc2ccccc2n2cnnc12

>  <cat>
2

$$$$
>  <compound>
CCN(CC)c1nc2ccc(F)cc2n2cnnc12

>  <cat>
2

$$$$
>  <compound>
CCc1nnc2c(NC(C)=O)nc3cc(Cl)c(Cl)cc3n12

>  <cat>
1

$$$$
>  <compound>
Cc1nnc2c(N)nc3ccc(Cl)cc3n12

>  <cat>
0

$$$$

Origin of measurements: ChEMBL document CHEMBL1124880
